Measured koff, listed per entry for reference.
- TARGET OF ASSAY: T1, ALK7-Fc comprising protein (Homo sapiens (Human), UniProt Q8NER5 21-113)
- T1 construct: not shown: The Fc part and any linker of the fusion; The construct's exact ALK7 limits are not seen either
- T1 sequence: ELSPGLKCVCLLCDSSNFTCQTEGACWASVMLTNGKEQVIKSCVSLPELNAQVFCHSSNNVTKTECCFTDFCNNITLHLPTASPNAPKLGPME
- METHOD: SPR (Biacore T100/T200), 25 °C; antibody captured on FAB chip, ALK7-Fc comprising protein as analyte; 1:1 model
Your answer is read as s⁻¹, so omit the unit and give the number.

Here is how some binders turned out for koff.
1. C03 (antibody, human IgG1, kappa, V domains shown, also called mAb C03; antibody C03) VH: QLQLQESGPGLVKPSETLSLTCTVSGGSISSSAYYWAWIRQPPGKGLEWIGSIYLSGSTTYNPSLKSRVTISVDTSKNQFSLKLSSVTAADTAVYYCARDGRYQSRSPDYYYGMDVWGQGTTVTVSS VL: EIVLTQSPGTLSLSPGERATLSCKASQSVSSSYLAWYQQKPGQAPRLLIYGAFSRANGIPDRFSGSGSGTDFTLTISRLEPEDFAVYYCQQLVSYPFTFGGGTKVEIKR    1.27e-05
2. K02 (antibody, V domains shown, also called mAb K02; antibody K02) VH: QVQLVQSGAEVKKPGSSVKVSCKASGGTFSSSAIGWVRQAPGQGLEWMGGIWPIFGTALYAQKFQGRVTITADESTSTAYMELSSLRSEDTAVYYCARDPREYIHVFDIWGQGTMVTVSS VL: DIQMTQSPSSLSASVGDRVTITCRASQSISSYLNWYQQKPGKAPKLLIYGASSLQSGVPSRFSGSGSGTDFTLTISSLQPEDFATYYCQQAYSFPWTFGGGIKVEIK    0.000291
3. L02 (antibody, V domains shown, also called mAb L02; antibody L02) VH: QVQLVQSGAEVKKPGASVKVSCKASGYTFAGYNMHWVRQAPGQGLEWVGIINPNSGWTNYAQKFQGRVTMTRDTSVSAAYMELSRLRSDDTAVYYCARDPVGARYEVFDYWGQGTLVTVSS VL: EIVMTQSPATLSVSPGERATLSCRASQSVSSALAWYQQKPGQAPRLLIYSAFTRASGIPARFSGSGSGTEFTLTISSLQSEDFAVYYCQQAWAFPLTFGGGTKVEIK    1.21e-05
4. J02 (antibody, V domains shown, also called mAb J02; antibody J02) VH: EVQLLESGGGLVQPGGSLRLSCAASGFTFSVYAMSWVRQAPGKGLEWVSAISGSGDSTVYADSVKGRFTISRDNSKNTLYLQMNSLRAEDTAVYYCAKPSYQPIYWGQGTLVTVSS VL: DIQMTQSPSSVSASVGDRVTITCRASQGISSWLAWYQQKPGKAPKLLIYAASSLQSGVPSRFSGSGSGTDFTLTISSLQPEDFATYYCQQAASYPLTFGGGTKVEIK    0.000126

Please examine the following record next.
Ask | For the binder shown here, G05 (antibody, human IgG1, kappa, V domains shown, also called mAb G05; antibody G05) VH: QVQLVQSGAEVKKPGSSVKVSCKASGGTFSGQAISWVRQAPGQGLEWMGGIIPSFGTARYAQKFQGRVTITADESTSTAYMELSSLRSEDTAVYYCARTPYYDSSGYLDVWGQGTMVTVSS VL: DIQMTQSPSSLSASVGDRVTITCQASHDIDNYLNWYQQKPGKAPKLLIYYASNLKTGVPSRFSGSGSGTDFTFTISSLQPEDIATYYCQQSRASPPTFGGGTKVEIKR , give the reported koff.
Reply | 2.59e-05
